Data origin: the supplement of paper PMC9732359

assay-method-text: protein stability index of a GFP-peptide fusion (yeast GPS) (PSI 1-4); higher = more stable; sorted into four equal gates, so the index is relative within each strain
condition-info: doa10∆
Label fulfilled for high-side protein stability index (at or above 3) and not fulfilled for low-side protein stability index (below it).

- ordered-residues: "SFLESVIRDSVTYTEHA [HHF1]"
  group: "not fulfilled"
- ordered-residues: "FCPGEIVGKSNVLVTMP [YMR129W/POM152]"
  group: "not fulfilled"
- ordered-residues: "KVVEFAITHMIDALGTE [SCL1]"
  group: "not fulfilled"
- ordered-residues: "LSIKNSFIINFISNLPN [NUT1]"
  group: "not fulfilled"
- ordered-residues: "FEKKELQEKFLNQIATL [IRR1]"
  group: "not fulfilled"

Textbook exercise: given the entry VVIAADTRSTQGPIVAD [PUP1] , state whether its protein stability index is greater than or equal to 3.
not fulfilled

Is protein stability index at least 3? Consider NLNVYIQVFEKPFLKKT [CDC53]
not fulfilled

Quick check: does PRPSYSSRPNVNTTRRF [YMR129W/POM152] have protein stability index greater than or equal to 3?
not fulfilled

Is reported protein stability index greater than or equal to 3 here: SKQVTDYYQSIYAKYGA [FAS2]
not fulfilled

Could you please find out whether IEINEDNSQDDQDRGAA [RRI2] has protein stability index that meets 3 or exceeds it?
fulfilled
